tested on: PE-PG mix lipid vesicles; assay: Synthetic phospholipid vesicle membrane binding assay (fluorescence polarisation), PE-PG mix vesicles; conditions: lipid vesicles added to SSA (0.15 mM); n = 3; error = standard error; SSA alone set to 100 mP
Readout Type: increase in FP, PE-PG mix (mP)

Cc1ccc2nc(-c3ccc(NC(=S)NCS(=O)(=O)O)cc3)sc2c1 ... 107
Cc1ccc2nc(-c3ccc(NC(=O)NCCCS(=O)(=O)O)cc3)sc2c1 ... 21
Cc1ccc2nc(-c3ccc(NC(=O)NCC(=O)O)cc3)sc2c1 ... 45
O=C(NCS(=O)(=O)O)Nc1ccccc1-c1nc2ccccc2s1 ... 36
Cc1ccc2nc(-c3ccc(NC(=O)NCCC(=O)O)cc3)sc2c1 ... 35

[A] O=C(NCS(=O)(=O)O)Nc1ccc(-c2nc3ccccc3s2)cc1
[B] Cc1ccc2nc(-c3ccc(NC(=O)NCS(=O)(=O)O)cc3)sc2c1
Q) Field: lower increase in FP, PE-PG mix | Options: A / B Please respond with the label that marks your chosen entry.
A) B
